We begin with a simple list: items and their reported IC50.
- System: parental CHO-K1, ATP-induced calcium, Fluo-8 fluorescence
- Assay procedure: Gq calcium signaling inhibition in parental CHO, late-stage follow-up, artefact control for OX1R antagonist project, cell-based, fluorescence, dose response (AID 624408)
Calls of active or inactive are those of the source.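 How the source made its calls: active means IC50 at or below 10 µM; inactive means IC50 above 10 µM.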

{"Compound": "CCc1cc2c(SCC(=O)N(CC)c3c(N)n(Cc4ccccc4)c(=O)[nH]c3=O)ncnc2s1", "IC50": "> 59.6 µM (inactive)"}
{"Compound": "Cc1ccc(-c2csc3nnc(SCC(=O)Nc4nsc(-c5ccccc5)n4)n23)cc1", "IC50": "> 59.6 µM (inactive)"}
{"Compound": "O=c1cc(CN2CC(O)Cc3ccc4ccccc4c32)nc2sccn12 (stereo not given)", "IC50": "55.4 µM (inactive)"}
{"Compound": "CSc1cccc(NC(=O)C2CCCN2S(=O)(=O)c2ccc(Br)s2)c1 (stereo not given)", "IC50": "20.4 µM (inactive)"}
{"Compound": "CCn1c(SCC(=O)Nc2ccc3c(c2)c2ccccc2n3CC)nnc1-c1cnccn1", "IC50": "> 59.6 µM (inactive)"}

###

- System: parental CHO-K1, ATP-induced calcium, Fluo-8 fluorescence
- Assay procedure: Gq calcium signaling inhibition in parental CHO, late-stage follow-up, artefact control for OX1R antagonist project, cell-based, fluorescence, dose response (AID 624408)
The source made the active and inactive calls.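 Rule for the calls: active = IC50 at or below 10 µM; inactive = IC50 above 10 µM.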
Possible outcomes: active, inactive

{"Molecule": "CC(=C/c1ccccc1)/C=C1/SC(N2CCOCC2)=NC1=O", "Group label": "inactive"}
{"Molecule": "COc1cccc(/C=C2/Oc3ccccc3N(CC(=O)NCC3CCCO3)C2=O)c1 (stereo not given)", "Group label": "inactive"}
{"Molecule": "CCOC(=O)N1CCN(C(=O)CSc2ccc(-c3ccccc3)nn2)CC1", "Group label": "inactive"}
{"Molecule": "COc1ccc(OC)c(S(=O)(=O)NCC(c2ccco2)N2CCc3ccccc32)c1 (stereo not given)", "Group label": "inactive"}
{"Molecule": "O=C(CSc1ccc(-c2ccccc2)nn1)c1cccs1", "Group label": "inactive"}
{"Molecule": "O=C(CN1C(=O)/C(=C\\c2cccc(Br)c2)Oc2ccccc21)NCC1CCCO1 (stereo not given)", "Group label": "inactive"}
{"Molecule": "Cc1cc(Cl)ccc1OCCCC(=O)NCCN1C(=O)S/C(=C\\c2cccnc2)C1=O", "Group label": "active"}
{"Molecule": "CCc1cc(C(=O)OCC(=O)N2CCC(c3ccccc3)=N2)sc1C", "Group label": "inactive"}
{"Molecule": "Cc1ccccc1NC(=O)C1CCCN1S(=O)(=O)c1ccccc1C(F)(F)F (stereo not given)", "Group label": "inactive"}
{"Molecule": "Cc1c(NS(=O)(=O)c2cccc(C(=O)OCC(=O)N(C)C3CCCCC3)c2)c(=O)n(-c2ccccc2)n1C", "Group label": "inactive"}
